Tested on: Escherichia coli (25922)
assay_overview: MIC, broth microdilution, Escherichia coli (25922)
Format: cell-based
condition_context: pH 3, Mueller Hinton Broth, 18 to 24 hours, read-out: MIC
Catalogue of MIC readings, one per entry.
The reply should contain only the number, in mg/mL.

Completed entries (count: 3):
molecule	readout_number
CCCCCCOP(=O)(O)OC[C@H]1O[C@@H](n2ccc(N)nc2=O)C[C@@H]1O [LAI-002]	25
CC(C)COP(=O)(O)OC[C@H]1O[C@@H](n2ccc(N)nc2=O)C[C@@H]1O [LAI-003]	20
CCCCCCCCOP(=O)(O)OC[C@H]1O[C@@H](n2ccc(N)nc2=O)C[C@@H]1O [LAI-001]	20

Turning now to a further record.
Can you look up MIC on Escherichia coli (25922) for CCCCOP(=O)(O)OC[C@H]1O[C@@H](n2ccc(N(C)C)nc2=O)C(F)(F)[C@@H]1O [LAK-023] ?
0.8

---

Reported MIC values follow for various compounds
System: S. haemolyticus ATCC-29970
assay_overview: MIC, broth microdilution, S. haemolyticus ATCC-29970
Type: cell-based
condition_context: S. haemolyticus ATCC-29970, Gram +ve; pH 3; 18 to 24 hours
Provide a numeric answer; units are not to be included.

As a guide, the following entries are already answered.
structure_as_smiles	readout	readout_number
CCCCOP(=O)(O)OC[C@H]1O[C@@H](n2ccc(N(C)C)nc2=O)C[C@@H]1O	MIC	0.39
CCCCOP(=O)(O)OC[C@H]1O[C@@H](n2ccc(N(C)C)nc2=O)C(F)(F)[C@@H]1O	MIC	0.78
CCCCOP(=O)(O)OC[C@H]1O[C@@H](n2ccc(N(C)C)nc2=O)[C@H](OC)[C@@H]1O	MIC	3.13

// lookup MIC for CCCCOP(=O)(O)OC[C@@H]1CC[C@H](n2ccc(N)nc2=O)O1
6.25

Input CCCCOP(=O)(O)OC[C@H]1O[C@@H](n2ccc(N)nc2=O)C(F)(F)[C@@H]1O
0.10

---

Measured MIC accompanies every entry in the list below.
Test system: Candida albicans (22972)
assay_overview: MIC, broth microdilution, Candida albicans (22972)
Assay type: cell-based
condition_context: pH 3, Mueller Hinton Broth, 18 to 24 hours, read-out: MIC
Response body: numeric value in mg/mL, unit text excluded.

Examples with their reported MIC follow.
compound	value_units	MIC
CC(C)COP(=O)(O)OC[C@H]1O[C@@H](n2ccc(N)nc2=O)C[C@@H]1O [LAI-003]	mg/mL	20
CCCCCCCCOP(=O)(O)OC[C@H]1O[C@@H](n2ccc(N)nc2=O)C[C@@H]1O [LAI-001]	mg/mL	20
CCCCOP(=O)(O)OC[C@H]1O[C@@H](n2ccc(N)nc2=O)C(F)(F)[C@@H]1O [LAI-006]	mg/mL	50
CCCCCCOP(=O)(O)OC[C@H]1O[C@@H](n2ccc(N)nc2=O)C[C@@H]1O [LAI-002]	mg/mL	50

From here, focus on the item given below.
Which MIC reading was recorded for the compound CCCCOP(=O)(O)OC[C@H]1O[C@@H](n2ccc(NC)nc2=O)C[C@@H]1O [LAI-009] ?
50

Where do these numbers come from? They come from patent US20260297118A1.
